These entries and their values trace back to ChEMBL document CHEMBL4706624.

System: Staphylococcus aureus
assay-name: Antibacterial activity against methicillin-resistant Staphylococcus aureus NR10129 measured after 16 to 18 hrs
Type: functional
measurement-parameters: time 16-18 hrs
reported-property: MIC

Check out these entries, answers already filled in.
{"structure-as-smiles": "Clc1ccc(-c2nc(Nc3ccc(-c4nc5ccccc5[nH]4)cc3)c3ccccc3n2)cc1", "MIC": "8 µg/mL"}
{"structure-as-smiles": "Clc1ccc2[nH]c(-c3ccc(Nc4nc(-c5ccccc5)nc5ccccc45)cc3)nc2c1", "MIC": "8 µg/mL"}
{"structure-as-smiles": "c1ccc(-c2nc(Nc3ccc(-c4nc5ccccc5[nH]4)cc3)c3ccccc3n2)cc1", "MIC": "16 µg/mL"}

Batch: MIC for all items listed.
1. CCCCCCCCCC(=O)N[C@@H](Cc1c[nH]c2ccccc12)C(=O)N[C@H](CC(N)=O)C(=O)N[C@@H](CC(=O)O)C(=O)N[C@@H]1C(=O)NCC(=O)N[C@@H](CCCN)C(=O)N[C@@H](CC(=O)O)C(=O)N[C@H](C)C(=O)N[C@@H](CC(=O)O)C(=O)NCC(=O)N[C@H](CO)C(=O)N[C@@H]([C@H](C)CC(=O)O)C(=O)N[C@@H](CC(=O)c2ccccc2N)C(=O)O[C@@H]1C
2. C[C@@H](O)[C@H]1C(=O)N2C(C(=O)O)=C(S[C@@H]3CN[C@H](C(=O)N(C)C)C3)[C@H](C)[C@H]12
3. COc1cccc(OC)c1C(=O)N[C@@H]1C(=O)N2[C@@H]1SC(C)(C)[C@@H]2C(=O)O
4. C[C@H]1COc2c(N3CCN(C)CC3)c(F)cc3c(=O)c(C(=O)O)cn1c23.C[C@H]1COc2c(N3CCN(C)CC3)c(F)cc3c(=O)c(C(=O)O)cn1c23.O
5. Fc1ccc2[nH]c(-c3ccc(Nc4nc(-c5ccc(Cl)cc5)nc5ccccc45)cc3)nc2c1

Found:
0.5 µg/mL
4 µg/mL
> 64 µg/mL
0.25 µg/mL
4 µg/mL
